- measurementTarget: Potassium voltage-gated channel subfamily KQT member 1 (Homo sapiens, UniProt P51787)
- Sequence (P51787 whole entry): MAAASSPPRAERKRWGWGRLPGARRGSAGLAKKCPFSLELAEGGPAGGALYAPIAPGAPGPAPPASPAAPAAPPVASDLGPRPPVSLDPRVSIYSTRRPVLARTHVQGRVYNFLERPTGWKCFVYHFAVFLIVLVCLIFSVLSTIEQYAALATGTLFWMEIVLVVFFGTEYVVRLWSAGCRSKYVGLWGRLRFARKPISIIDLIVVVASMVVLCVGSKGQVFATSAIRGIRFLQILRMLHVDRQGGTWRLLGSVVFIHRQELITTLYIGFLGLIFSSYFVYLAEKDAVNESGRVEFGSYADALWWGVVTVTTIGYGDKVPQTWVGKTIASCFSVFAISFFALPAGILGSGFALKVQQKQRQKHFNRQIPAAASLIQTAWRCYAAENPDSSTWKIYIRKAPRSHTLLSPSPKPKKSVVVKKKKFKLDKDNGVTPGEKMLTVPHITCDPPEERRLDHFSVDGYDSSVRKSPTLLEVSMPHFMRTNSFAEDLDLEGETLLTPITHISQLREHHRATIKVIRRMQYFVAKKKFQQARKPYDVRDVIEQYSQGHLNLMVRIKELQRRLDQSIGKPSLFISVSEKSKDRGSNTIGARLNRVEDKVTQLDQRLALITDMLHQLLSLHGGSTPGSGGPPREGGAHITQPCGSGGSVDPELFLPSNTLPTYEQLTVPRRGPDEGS
- testProtocol: Antagonist activity at KCNQ1 expressed in CHO cells incubated for 3 mins by automated patch clamp assay
measuredProperty: pIC50
Value format note: pIC50 is -log10 of concentration (mol/L); just state the number.

INPUT: Give recorded pIC50 with Potassium voltage-gated channel subfamily KQT member 1 (Homo sapiens, UniProt P51787) for the following molecule: CC[C@H](C(=O)Nc1ccccc1N1CCCC1)c1ccccc1
OUTPUT: 5.53

* * *

- measurementTarget: Potassium voltage-gated channel subfamily KQT member 2 (Homo sapiens, UniProt O43526)
- Sequence (O43526 whole entry): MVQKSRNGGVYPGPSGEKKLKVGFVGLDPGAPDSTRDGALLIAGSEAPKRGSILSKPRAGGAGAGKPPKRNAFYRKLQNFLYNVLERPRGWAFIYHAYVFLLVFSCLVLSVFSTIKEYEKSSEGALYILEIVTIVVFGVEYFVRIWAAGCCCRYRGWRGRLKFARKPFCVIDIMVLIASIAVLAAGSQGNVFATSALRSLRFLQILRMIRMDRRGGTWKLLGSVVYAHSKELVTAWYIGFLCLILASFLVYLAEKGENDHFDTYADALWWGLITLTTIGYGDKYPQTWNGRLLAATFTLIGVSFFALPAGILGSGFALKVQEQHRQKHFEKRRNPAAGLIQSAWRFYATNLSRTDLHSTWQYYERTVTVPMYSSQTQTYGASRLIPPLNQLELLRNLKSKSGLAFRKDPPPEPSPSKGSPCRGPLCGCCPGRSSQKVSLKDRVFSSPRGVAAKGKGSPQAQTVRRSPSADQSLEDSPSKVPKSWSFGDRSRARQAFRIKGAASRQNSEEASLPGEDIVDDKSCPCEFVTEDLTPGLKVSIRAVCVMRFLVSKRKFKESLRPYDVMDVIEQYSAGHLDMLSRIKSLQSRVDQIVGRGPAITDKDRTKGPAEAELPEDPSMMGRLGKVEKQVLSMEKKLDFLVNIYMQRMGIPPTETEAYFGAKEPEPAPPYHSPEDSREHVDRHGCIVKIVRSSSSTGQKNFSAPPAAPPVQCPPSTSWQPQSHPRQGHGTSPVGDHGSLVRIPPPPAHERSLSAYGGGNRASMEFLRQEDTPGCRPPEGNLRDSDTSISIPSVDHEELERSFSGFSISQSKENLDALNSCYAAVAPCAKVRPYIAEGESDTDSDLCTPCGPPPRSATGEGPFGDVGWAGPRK
- testProtocol: Antagonist activity at KCNQ2 expressed in CHO cells incubated for 3 mins by automated patch clamp assay
Consider the following compounds and their measured pIC50 readings.
Keep it numeric: pIC50 is minus log10 of the concentration in mol/L.

INPUT: State the recorded pIC50 for this entry: CCC(C(=O)Nc1ccccc1N1CCCC1)c1cccc(C(F)(F)F)c1 (racemic)
OUTPUT: 6.41

INPUT: Thanks! And CCC(C(=O)Nc1ccccc1N1CCCC1)c1ccccc1Cl (racemic) ?
OUTPUT: 5.48

INPUT: Now give it for CCC(C(=O)Nc1ccccc1N1CCCC1)c1cccc(F)c1 (racemic) too.
OUTPUT: 6.44

INPUT: Then what about the compound CCC(C(=O)Nc1ccccc1-n1cccc1)c1ccccc1 (racemic) ?
OUTPUT: 5.28

INPUT: Continue with CC(C(=O)Nc1ccccc1N1CCCC1)c1ccccc1 (racemic)
OUTPUT: 6.59

INPUT: Next record, please: CCC(C(=O)Nc1ccccc1N1CCCC1)c1ccc(OC)cc1 (racemic)
OUTPUT: 6.42

---
INPUT: Which pIC50 reading was recorded for the compound CCC(C(=O)Nc1ccc(N2CCCC2)cc1)c1ccccc1 (stereo unspecified) ?
OUTPUT: 6.68

* * *

- measurementTarget: Cytochrome P450 1A2 (Homo sapiens, UniProt P05177)
- Sequence (P05177 whole entry): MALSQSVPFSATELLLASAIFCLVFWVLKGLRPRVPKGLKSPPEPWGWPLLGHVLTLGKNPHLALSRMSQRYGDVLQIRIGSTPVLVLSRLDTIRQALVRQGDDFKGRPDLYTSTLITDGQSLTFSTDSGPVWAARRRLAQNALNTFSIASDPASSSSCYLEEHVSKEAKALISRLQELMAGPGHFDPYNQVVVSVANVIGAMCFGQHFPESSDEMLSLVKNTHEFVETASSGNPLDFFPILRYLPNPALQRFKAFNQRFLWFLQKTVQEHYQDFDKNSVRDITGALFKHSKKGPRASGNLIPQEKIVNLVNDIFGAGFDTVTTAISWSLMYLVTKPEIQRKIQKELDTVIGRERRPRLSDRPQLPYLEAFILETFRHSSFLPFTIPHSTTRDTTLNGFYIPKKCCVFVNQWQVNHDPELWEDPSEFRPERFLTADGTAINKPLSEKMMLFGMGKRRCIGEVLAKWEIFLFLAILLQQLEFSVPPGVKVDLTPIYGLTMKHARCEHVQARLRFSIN
measuredProperty: IC50 (µM)
The reply should contain only the number, in µM.

INPUT: Endpoint output: IC50 of CC[C@H](C(=O)Nc1ccccc1N1CCCC1)c1ccccc1 . Value?
OUTPUT: 6.1

* * *

Quick reference: EC50 of the listed items.
- measurementTarget: Potassium voltage-gated channel subfamily KQT member 2 (Homo sapiens, UniProt O43526)
- testProtocol: Agonist activity at KCNQ2 expressed in CHO cells incubated for 3 mins by automated patch clamp assay
- Format: functional, cell-based
Express your answer in nM, writing the number without its unit.

Example entries and their recorded answers appear below.
INPUT: Sample COc1cccc(CC(=O)Nc2ccccc2N2CCCC2)c1 — what was its EC50?
OUTPUT: 2350

INPUT: Also check O=C(Cc1cccc(Cl)c1)Nc1ccccc1N1CCCCC1
OUTPUT: 7090

INPUT: Next record, please: CN(C)c1ccccc1NC(=O)Cc1cccc(Cl)c1
OUTPUT: 27400

INPUT: Another compound to check: O=C(Cc1cccc(Cl)c1)Nc1cccc(N2CCCC2)c1
OUTPUT: 1020

INPUT: Try O=C(Nc1ccccc1N1CCCC1)C(F)c1ccccc1 (configuration not stated) next.
OUTPUT: 990

Continuing:
INPUT: Need EC50, item COc1ccc(CC(=O)Nc2ccccc2N2CCCC2)cc1
OUTPUT: 1750

* * *

- measurementTarget: Potassium voltage-gated channel subfamily KQT member 2 (Homo sapiens)
- testProtocol: Antagonist activity at KCNQ2 expressed in CHO cells incubated for 3 mins by automated patch clamp assay
Parameter: log10 IC50. Scope: all listed entries.
Hello, just confirming the data are log10 of IC50 with units of nM.

INPUT: Which measured log10 IC50 value corresponds to CC(C)CC(C(=O)Nc1ccccc1N1CCCC1)c1ccccc1 (racemic) ?
OUTPUT: 3.35

INPUT: Then this compound: CC[C@H](C(=O)Nc1ccccc1N1CCCC1)c1ccccc1
OUTPUT: 1.85

INPUT: // same read-out, input: CCC(C(=O)Nc1ccccc1N1CCCC1)c1cccc(OC)c1 (racemic)
OUTPUT: 2.08

INPUT: Next: CCC(C(=O)Nc1ccccc1Cl)c1ccccc1 (racemic)
OUTPUT: 4.18

INPUT: // same read-out, input: CCC(C(=O)Nc1ccccc1N1CCOCC1)c1ccccc1 (racemic)
OUTPUT: 4.10

Others:
INPUT: # log10 IC50 lookup, item CCC(C(=O)Nc1ccccc1N1CCCC1)c1ccc(Cl)c(Cl)c1 (racemic)
OUTPUT: 2.67

INPUT: Repeat for the following compound: CCC(C(=O)Nc1ccccc1N1CCCC1)c1ccc(F)c(F)c1 (racemic)
OUTPUT: 2.23

INPUT: Here is the next compound: CCC(C(=O)Nc1ccccc1N1CCCC1)c1ccccc1 (racemic)
OUTPUT: 2.21

INPUT: Then this compound: O=C(Nc1ccccc1N1CCCC1)C(c1ccccc1)C1CC1 (racemic)
OUTPUT: 3.54

* * *

- measurementTarget: Potassium voltage-gated channel subfamily KQT member 2 (Homo sapiens, UniProt O43526)
- testProtocol: Agonist activity at KCNQ2 expressed in CHO cells incubated for 3 mins by automated patch clamp assay
- Assay type: functional, cell-based
measuredProperty: EC50

The cases that follow already have their EC50 on record.
INPUT: # query: EC50 of entry CCN(C)c1ccccc1NC(=O)Cc1cccc(Cl)c1
OUTPUT: > 30 µM

INPUT: Subsequent entry: O=C(Cc1cccc(Cl)c1)Nc1ccccc1N1CCCCCC1
OUTPUT: > 30 µM

***
INPUT: Which EC50 is reported for this molecule? CCC(C(=O)Nc1ccccc1-n1c(C)ccc1C)c1ccccc1 (racemic)
OUTPUT: > 30 µM

* * *

# Lookup of reported pEC50 keyed by entry
- measurementTarget: Potassium voltage-gated channel subfamily KQT member 2 (Homo sapiens)
- testProtocol: Agonist activity at KCNQ2 expressed in CHO cells incubated for 3 mins by automated patch clamp assay
Lab note: report pEC50 as minus log10 of the concentration in molar units, number only.

# count of solved cases: 2
INPUT: Quick one: pEC50 for O=C(Cc1ccccc1Cl)Nc1ccccc1N1CCCC1 ?
OUTPUT: 6.02

INPUT: Lookup O=C(Cc1ccccc1)Nc1ccccc1N1CCCC1
OUTPUT: 6.13

From here, focus on the item given below.
INPUT: Which pEC50 is listed for O=C(Cc1cccc(Cl)c1)Nc1ccc(N2CCCC2)cc1 ?
OUTPUT: 5.06

* * *

- measurementTarget: Potassium voltage-gated channel subfamily KQT member 2 (Homo sapiens, UniProt O43526)
- testProtocol: Agonist activity at KCNQ2 expressed in CHO cells incubated for 3 mins by automated patch clamp assay
measuredProperty: EC50

INPUT: API: value(readout= EC50, system= Potassium voltage-gated channel subfamily KQT member 2 (Homo sapiens, UniProt O43526), query= O=C(Cc1cccc(Cl)c1)Nc1ccccc1N1CCOCC1 )
OUTPUT: > 30 µM

INPUT: Item: CN(C(=O)Cc1ccccc1)c1ccccc1N1CCCC1
OUTPUT: > 30 µM

Below: the item to evaluate.
INPUT: Provide the documented EC50 with Potassium voltage-gated channel subfamily KQT member 2 (Homo sapiens, UniProt O43526) as the system for CN(Cc1ccccc1)c1ccccc1NC(=O)Cc1cccc(Cl)c1
OUTPUT: > 30 µM
